Origin of measurements: ChEMBL document CHEMBL3507680

Assay: Human HepG2 cell viability assay in 384 well format
Type: toxicity, cell-based
Set-up: dose 125 nL, time 70.5 hour; concentration not given beside the values
Settings: HepG2 cells, read-out: Inhibition
Recorded cytotoxicity at 70.5 h values for a group of molecules are listed next.
property: cytotoxicity at 70.5 h (%)

INSERT INTO assay_data (molecule, measurement) VALUES
  ('OC(CNCCc1nnc2ccccn12)c1ccc2c(c1)OCO2 (stereo not drawn)', -5.97),
  ('Nc1ncc(-c2ccc(NC(=O)[C@@H]3CCCCN3)cc2)cn1', 2.01),
  ('Cc1ccc(CN2CCN(C(=O)C3CCC3)[C@@H]3CS(=O)(=O)C[C@@H]32)cc1C', -0.626);
